# Experimental details: Caco-2 membrane permeability, improved method as used in the following Examples (96-well, 20 to 24 h preincubation)
# Type: in vitro ADME
# Condition details: human, Caco-2, Caco-2
Starred links: 1 amine or outer side, 2 acyl side, 3 side chain; linkers in the order of their positions; H or OH if unused. Positions of bridges follow the written chain, without caps; N, C: chain ends. Non-standard residues stand in square brackets, D forms with d. Residues, ends and D or L forms follow the SMILES beside them. *: point of attachment. NMeAbu(4-morpholino) = CN[C@@H](CCN1CCOCC1)C(=O)O; 3Pal(6-NMe2) = CN(C)c1ccc(C[C@H](N)C(=O)O)cn1; NMePhe(3-Cl) = CN[C@@H](Cc1cccc(Cl)c1)C(=O)O; X14 = O=C([C@H](CCc1ccccc1Cl)N[*:1])[*:2]; Hyp = O=C(O)[C@@H]1C[C@@H](O)CN1; NMeF = CN[C@@H](Cc1ccccc1)C(=O)O; hPhe = N[C@@H](CCc1ccccc1)C(=O)O; NMeD = CN[C@@H](CC(=O)O)C(=O)O; NMeL = CN[C@@H](CC(C)C)C(=O)O; NMeV = CN[C@H](C(=O)O)C(C)C; NMeA = CN[C@@H](C)C(=O)O; Piperidide = C1CCN(*)CC1; Me2NCH2CH2 = CN(C)CC*; NBuGly = CCCCNCC(=O)O; Sar = CNCC(=O)O; tBu = CC(C)(C)*; CHF2 = FC(F)*
Measurement name: Papp A→B at 180 min (×10⁻⁶ cm/s)
Answer in ×10⁻⁶ cm/s, number only, no unit symbol.

# Papp A→B at 180 min of CCCCN1CC(=O)N(C)[C@@H](C(C)C)C(=O)N[C@H](C(=O)N2CCCCC2)CC(=O)N(C)[C@@H](C)C(=O)N[C@@H](CC(C)C)C(=O)N(C)[C@@H](CC(C)C)C(=O)N(C)[C@@H](Cc2ccccc2)C(=O)N[C@@H](CC(C)C)C(=O)N(C)[C@@H](Cc2ccccc2)C(=O)N(C)[C@@H](CCN2CCOCC2)C(=O)N[C@@H]([C@@H](C)O)C1=O [pd453] ([NMeA]L[NMeL][NMeF]L[NMeF][NMeAbu(4-morpholino)]T[NBuGly][NMeV]D-Piperidide; lactam N-11) = 2.3

Record CC[C@H](C)[C@@H]1NC(=O)[C@H](Cc2ccccc2)N(C)C(=O)CN(C)C(=O)C[C@@H](C(=O)N2CCCCC2)NC(=O)[C@H](C(C)C)N(C)C(=O)[C@H](CCc2ccccc2Cl)NC(=O)[C@H](CC(C)C)N(C)C(=O)[C@H](CC(C)C)N(C)C(=O)CN(C)C(=O)[C@H]([C@@H](C)O)NC(=O)[C@H](CC(C)C)N(C)C1=O [pd354] ([Sar][NMeF]I[NMeL]T[Sar][NMeL][NMeL][X14][NMeV]D-Piperidide; lactam N-11) . Reported Papp A→B at 180 min: 1.5

Note to self: Papp A→B at 180 min recorded for CC[C@H](C)[C@@H]1NC(=O)[C@H](CC(C)C)N(C)C(=O)CN(C)C(=O)C[C@@H](C(=O)N2CCCCC2)NC(=O)[C@H](C(C)C)N(C)C(=O)[C@H](Cc2ccc(OC(F)F)cc2)NC(=O)[C@H](CC(C)C)N(C)C(=O)[C@H](Cc2ccccc2)N(C)C(=O)CN(C)C(=O)[C@H]([C@@H](C)O)NC(=O)[C@H](CC(C)C)N(C)C1=O [pd481] ([Sar][NMeL]I[NMeL]T[Sar][NMeF][NMeL]Y(CHF2)[NMeV]D-Piperidide; lactam N-11) was 3.8

For this compound ( CCO[C@@H]1C[C@H]2C(=O)N(C)[C@@H](C(C)C)C(=O)N[C@@H]([C@@H](C)O)C(=O)N(C)[C@@H](Cc3ccccc3)C(=O)N[C@@H](Cc3ccccc3)C(=O)N(C)[C@@H](CC(C)C)C(=O)N(C)[C@H](C(=O)N3CCCCC3)CC(=O)N3CCC[C@H]3C(=O)N(C)[C@@H](C(C)C)C(=O)N[C@@H](COC(C)(C)C)C(=O)N(C)[C@@H](CC(C)C)C(=O)N2C1 [pd376] (P[NMeV]S(tBu)[NMeL][Hyp](Et)[NMeV]T[NMeF]F[NMeL][NMeD]-Piperidide; lactam N-11) ), measured Papp A→B at 180 min is 2.4

// field: Papp A→B at 180 min; key: CCCCN1CC(=O)N(C)[C@@H](CC(C)C)C(=O)N[C@@H](COC(C)(C)C)C(=O)N(C)[C@@H](Cc2ccccc2)C(=O)N(C)[C@@H](C(C)C)C(=O)N[C@H](C(=O)N2CCCCC2)CC(=O)N[C@H](C(C)C)C(=O)N(C)[C@@H](Cc2ccccc2)C(=O)N[C@@H](COCCN(C)C)C(=O)N(C)[C@@H](CC(C)C)C(=O)N[C@@H]([C@@H](C)O)C1=O [pd53] ([dV][NMeF]S(Me2NCH2CH2)[NMeL]T[NBuGly][NMeL]S(tBu)[NMeF][NMeV]D-Piperidide; lactam N-11) ; value = 0.14

# Papp A→B at 180 min (compound: CCCCN1CC(=O)N(C)[C@@H](CC(C)C)C(=O)N[C@H](C(=O)N2CCCCC2)CC(=O)N(C)[C@@H](C)C(=O)N[C@@H](Cc2ccc(N(C)C)nc2)C(=O)N(C)[C@@H](C)C(=O)N(C)[C@@H](C)C(=O)N[C@@H](CC(C)C)C(=O)N(C)[C@@H](Cc2cccc(Cl)c2)C(=O)N(C)[C@@H](CC(C)C)C(=O)N[C@@H]([C@@H](C)O)C1=O [pd400] ([NMeA][3Pal(6-NMe2)][NMeA][NMeA]L[NMePhe(3-Cl)][NMeL]T[NBuGly][NMeL]D-Piperidide; lactam N-11) ) is 2.3

Recorded result, CC(C)C[C@H]1C(=O)N(C)[C@@H](Cc2ccccc2)C(=O)N[C@@H](COC(C)(C)C)C(=O)N(C)[C@@H](C)C(=O)N[C@H](C(=O)N2CCCCC2)CC(=O)N(C)[C@@H](C)C(=O)N(C)[C@@H](Cc2ccccc2)C(=O)N[C@@H](CCc2ccccc2)C(=O)N(C)[C@@H](CC(C)C)C(=O)N[C@@H]([C@@H](C)O)C(=O)N(C)CC(=O)N1C [pd310] ([NMeA][NMeF][hPhe][NMeL]T[Sar][NMeL][NMeF]S(tBu)[NMeA]D-Piperidide; lactam N-11) , Papp A→B at 180 min: 1.6

* * *

Task for the reader: assign each of the following molecules its reported Papp A→B.
# Experimental details: Caco-2 membrane permeability, improved method as used in the following Examples (96-well, 20 to 24 h preincubation)
# Type: in vitro ADME
# Condition details: Caco-2, Caco-2 (cm/sec)
Positions of bridges follow the written chain, without caps; N, C: chain ends. Non-standard residues stand in square brackets, D forms with d. Residues, ends and D or L forms follow the SMILES beside them. *: point of attachment. Phe(4-CF3) = N[C@@H](Cc1ccc(C(F)(F)F)cc1)C(=O)O; NMeF = CN[C@@H](Cc1ccccc1)C(=O)O; NMeI = CC[C@H](C)[C@H](NC)C(=O)O; NMeL = CN[C@@H](CC(C)C)C(=O)O; NMeV = CN[C@H](C(=O)O)C(C)C; NMeA = CN[C@@H](C)C(=O)O; Piperidide = C1CCN(*)CC1; Sar = CNCC(=O)O; tBu = CC(C)(C)*
Note: a bare number is incomplete; add the unit.

CC(C)C[C@H]1C(=O)N[C@@H](COC(C)(C)C)C(=O)N(C)[C@@H](C(C)C)C(=O)N(C)[C@@H](C)C(=O)N[C@H](C(=O)N2CCCCC2)CC(=O)N[C@H](C)C(=O)N(C)[C@@H](Cc2ccccc2)C(=O)N[C@@H](Cc2ccc(C(F)(F)F)cc2)C(=O)N(C)[C@@H](CC(C)C)C(=O)N[C@@H]([C@@H](C)O)C(=O)N(C)CC(=O)N1C [pd130] ([dA][NMeF][Phe(4-CF3)][NMeL]T[Sar][NMeL]S(tBu)[NMeV][NMeA]D-Piperidide; lactam N-11) yielded Papp A→B of 1.1 ×10⁻⁶ cm/s

Lab note: measured Papp A→B of CC[C@H](C)[C@H]1C(=O)N[C@@H]([C@@H](C)O)C(=O)N(C)CC(=O)N(C)[C@@H](C)C(=O)N[C@H](C(=O)N2CCCCC2)CC(=O)N(C)[C@@H](C)C(=O)N[C@@H](Cc2ccc(C(F)(F)F)cc2)C(=O)N(C)[C@@H](CC(C)C)C(=O)N(C)[C@@H](Cc2ccccc2)C(=O)N[C@@H](C)C(=O)N(C)[C@@H](CC(C)C)C(=O)N1C [pd131] ([NMeA][Phe(4-CF3)][NMeL][NMeF]A[NMeL][NMeI]T[Sar][NMeA]D-Piperidide; lactam N-11) was 1.1 ×10⁻⁶ cm/s

Origin of the recorded values: patent US20200131669A1
